Answer each item with its documented Mouse Hepatic Microsome CLh,int NADPH(-).
# MEASUREMENT_PROTOCOL: Metabolic stability test: liver microsomal stability assay
# Format: in vitro ADME, mouse
# TEST_CONDITIONS: mouse liver microsomes 0.5 mg protein/mL, compound 1 µM, absence of NADPH
Starred links: 1 amine or outer side, 2 acyl side, 3 side chain; linkers in the order of their positions; H or OH if unused. Positions of bridges follow the written chain, without caps; N, C: chain ends. Non-standard residues stand in square brackets, D forms with d. Residues, ends and D or L forms follow the SMILES beside them. *: point of attachment. NMeF = CN[C@@H](Cc1ccccc1)C(=O)O; NMeI = CC[C@H](C)[C@H](NC)C(=O)O; NMeT = CN[C@H](C(=O)O)[C@@H](C)O; hPhe = N[C@@H](CCc1ccccc1)C(=O)O; NMeβAla = CN(CCC(=O)[*:2])[*:1]; NMeL = CN[C@@H](CC(C)C)C(=O)O; dNMeV = CN[C@@H](C(=O)O)C(C)C; NMeV = CN[C@H](C(=O)O)C(C)C; d(β3hA) = C[C@@H](N)CC(=O)O; NMeAbu = CC[C@H](NC)C(=O)O; NMeA = CN[C@@H](C)C(=O)O; Piperidide = C1CCN(*)CC1; Abu = CC[C@H](N)C(=O)O; Sar = CNCC(=O)O; tBu = CC(C)(C)*
Answers are plain numbers, in µL/min/mg Protein.

COMPOUND	PARAMETER	UNIT_ABBREVIATION	MEASURED_NUMBER
CC(C)C[C@@H]1NC(=O)[C@H]([C@@H](C)O)N(C)C(=O)[C@@H](C(C)C)NC(=O)C[C@@H](C(=O)N2CCCCC2)NC(=O)[C@H](C(C)C)N(C)C(=O)[C@H](C)N(C)C(=O)[C@H](C(C)C)NC(=O)[C@H](Cc2ccccc2)N(C)C(=O)[C@@H]2CCCN2C(=O)[C@H](CC(C)C)N(C)C(=O)CN(C)C(=O)[C@H](CCc2ccccc2)NC(=O)[C@H](CC(C)C)N(C)C(=O)[C@H](C(C)C)N(C)C1=O [pd040] ([dV][NMeT]L[NMeV][NMeL][hPhe][Sar][NMeL]P[NMeF]V[NMeA][NMeV]D-Piperidide; lactam N-14)	Mouse Hepatic Microsome CLh,int NADPH(-)	µL/min/mg Protein	22.3
CC[C@@H]1NC(=O)[C@H](CC(C)C)N(C)C(=O)[C@H]([C@@H](C)CC)NC(=O)CN(C)C(=O)C[C@@H](C)NC(=O)[C@H](C(C)C)N(C)C(=O)[C@H](COC(C)(C)C)NC(=O)[C@H](CC(C)C)N(C)C(=O)[C@H](C)NC(=O)[C@H](Cc2ccccc2)N(C)C(=O)[C@H](CC(C)C)NC(=O)CN(C)C(=O)[C@H]([C@@H](C)O)NC(=O)[C@H](CC(C)C)N(C)C1=O [pd010] (cyclo(A[NMeL]S(tBu)[NMeV][d(β3hA)][Sar]I[NMeL][Abu][NMeL]T[Sar]L[NMeF]))	Mouse Hepatic Microsome CLh,int NADPH(-)	µL/min/mg Protein	27.8
CC(C)C[C@@H]1NC(=O)[C@H](C(C)C)N(C)C(=O)[C@H](Cc2ccccc2)N(C)C(=O)[C@H](CC(C)C)NC(=O)[C@H](CC(C)C)N(C)C(=O)[C@H](C)N(C)C(=O)[C@H]([C@@H](C)O)NC(=O)[C@H](CC(C)C)N(C)C(=O)[C@H](C(C)C)N(C)C(=O)[C@H](CC(C)C)NC(=O)[C@H](Cc2ccccc2)N(C)C(=O)[C@@H](C(C)C)N(C)C(=O)C[C@@H](C(=O)N2CCCCC2)NC1=O [pd108] ([dNMeV][NMeF]L[NMeV][NMeL]T[NMeA][NMeL]L[NMeF][NMeV]LD-Piperidide; lactam N-13)	Mouse Hepatic Microsome CLh,int NADPH(-)	µL/min/mg Protein	35.5

Please find the next compound below.
Read the entry CC[C@@H]1NC(=O)[C@H]([C@@H](C)O)N(C)C(=O)CCN(C)C(=O)[C@H]([C@@H](C)CC)NC(=O)[C@H](Cc2ccccc2)N(C)C(=O)CN(C)C(=O)C[C@@H](C(=O)N2CCCCC2)NC(=O)[C@H]([C@@H](C)CC)N(C)C(=O)[C@H](COC(C)(C)C)NC(=O)[C@@H]2CCCN2C(=O)[C@H](CCc2ccccc2)NC(=O)[C@H](CC)N(C)C(=O)[C@H](C)NC(=O)[C@H](CC(C)C)N(C)C1=O [pd038] ([Sar][NMeF]I[NMeβAla][NMeT][Abu][NMeL]A[NMeAbu][hPhe]PS(tBu)[NMeI]D-Piperidide; lactam N-14) and write its reported Mouse Hepatic Microsome CLh,int NADPH(-).
18.1
